- target_system: T318I mutant of human CYP51 (Homo sapiens, UniProt Q16850, T324I)
- Sequence (Q16850 whole entry T324I): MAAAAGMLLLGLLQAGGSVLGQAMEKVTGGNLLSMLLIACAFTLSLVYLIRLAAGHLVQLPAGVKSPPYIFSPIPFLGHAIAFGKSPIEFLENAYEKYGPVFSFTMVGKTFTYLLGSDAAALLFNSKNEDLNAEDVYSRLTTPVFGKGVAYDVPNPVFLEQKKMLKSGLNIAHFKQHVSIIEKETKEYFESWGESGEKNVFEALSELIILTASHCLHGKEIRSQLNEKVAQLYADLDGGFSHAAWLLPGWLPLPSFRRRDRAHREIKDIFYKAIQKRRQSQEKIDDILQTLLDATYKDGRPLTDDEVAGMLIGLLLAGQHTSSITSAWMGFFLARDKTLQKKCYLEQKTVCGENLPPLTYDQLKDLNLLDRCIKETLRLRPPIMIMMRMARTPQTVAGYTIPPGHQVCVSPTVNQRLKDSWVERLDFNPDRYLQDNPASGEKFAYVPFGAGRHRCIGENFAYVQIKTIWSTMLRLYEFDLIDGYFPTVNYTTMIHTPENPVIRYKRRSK
- assay_protocol: CYP51 inhibitor binding assay, T318I mutant
readout_type: Kd (nM)

>>> value_observed("O=C(N[C@@H](Cn1ccnc1)c1ccc(Cl)cc1Cl)c1ccc(-c2nnc(-c3ccccc3)o2)cc1")
400

----------
Target chain: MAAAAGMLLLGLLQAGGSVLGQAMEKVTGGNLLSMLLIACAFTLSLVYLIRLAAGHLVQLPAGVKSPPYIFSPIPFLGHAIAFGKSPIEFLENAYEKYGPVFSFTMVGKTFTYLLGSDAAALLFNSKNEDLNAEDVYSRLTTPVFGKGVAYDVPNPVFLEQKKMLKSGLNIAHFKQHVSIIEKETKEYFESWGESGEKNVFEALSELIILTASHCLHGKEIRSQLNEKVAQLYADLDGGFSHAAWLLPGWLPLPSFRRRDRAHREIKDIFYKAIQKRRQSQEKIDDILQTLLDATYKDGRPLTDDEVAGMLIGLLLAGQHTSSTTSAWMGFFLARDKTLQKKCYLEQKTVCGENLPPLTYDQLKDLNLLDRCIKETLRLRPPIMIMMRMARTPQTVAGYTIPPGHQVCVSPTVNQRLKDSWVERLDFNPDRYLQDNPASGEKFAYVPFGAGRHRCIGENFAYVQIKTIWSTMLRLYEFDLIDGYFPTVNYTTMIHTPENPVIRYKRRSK
readout_type: Kd (µM)

>>> value_observed("O=C(N[C@@H](Cn1ccnc1)c1ccc(Cl)cc1Cl)c1ccc(-c2nnc(-c3ccccc3)o2)cc1")
4.7

Origin of values: paper PMC6881533
